molecular target: human-type glucagon receptor (Homo sapiens)
Sequence (P47871 26-477): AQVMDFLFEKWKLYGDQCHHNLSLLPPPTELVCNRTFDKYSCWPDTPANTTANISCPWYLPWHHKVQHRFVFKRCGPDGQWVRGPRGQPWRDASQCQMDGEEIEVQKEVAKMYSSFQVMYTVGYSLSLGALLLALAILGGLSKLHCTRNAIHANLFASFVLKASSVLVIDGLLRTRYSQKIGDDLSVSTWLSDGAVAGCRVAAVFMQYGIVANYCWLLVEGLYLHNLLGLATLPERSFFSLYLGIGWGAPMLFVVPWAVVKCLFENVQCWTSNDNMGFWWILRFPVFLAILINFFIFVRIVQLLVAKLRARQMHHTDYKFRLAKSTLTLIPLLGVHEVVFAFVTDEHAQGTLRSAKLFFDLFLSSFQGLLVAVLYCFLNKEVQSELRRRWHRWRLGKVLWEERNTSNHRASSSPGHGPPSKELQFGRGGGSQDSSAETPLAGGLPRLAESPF
endpoint_label: IC50 (nM)

compound	IC50 [nM]
CCc1oc(-c2ccc(C(F)(F)F)cc2)cc1C(CC(C)C)Oc1ccc(C(=O)NCCC(=O)O)cc1 (stereo not drawn)	630

P: Cc1sc(-c2ccccc2)cc1C(Nc1ccc(C(=O)N(C)CCC(=O)O)nc1)C1CCCCC1 (stereo not drawn)
Q: COCc1oc(-c2ccc(F)cc2)cc1C(Nc1ccc(C(=O)N(C)CCC(=O)O)cc1)C1CCCCC1 (stereo not drawn)
R: Cc1oc(-c2ccc(OC(F)(F)F)cc2)cc1C(Nc1ccc(C(=O)NCCC(=O)O)cc1)C1CCCCC1 (stereo not drawn)
S: CCc1sc(-c2ccc(C(F)(F)F)cc2)cc1C(Nc1ccc(C(=O)NCCC(=O)O)cc1)C1CCCCC1 (stereo not drawn)
In: Falling order of IC50, please. Answer format: the labels, in the requested order.
Out: P, Q, R, S
